targetOfAssay: hERG1 (Homo sapiens)
Construct: expressed in transfected cells; host or cells: HEK 293
testSummary: Whole cell patch-clamp of hERG1 currents in transfected HEK 293 cells
Assay type: cell-based
details: Conc. 50 µM; shift in voltage-dependence of activation
Method: Transfected HEK cells on glass cover slips were placed in a chamber mounted on a modified stage of an inverted microscope. The chamber was superfused at a rate of 2 mL/min with a normal external solution. The extracellular solution contained (in mM) NaCl 140, KCl 5.4, CaCl2 1, MgCl2 1, HEPES 5, glucose 5.5, pH 7.4, with NaOH. […] Unless otherwise indicated, tail currents were recorded when the voltage was returned to −50 mV from +50 mV. […]
Label condition met when Activation V1/2 (mV) >= -2 mV; otherwise condition not met.

Field: example entries. Status: answers known.
CN(C(=O)c1cccc(C(F)(F)F)c1)c1ccccc1 = condition met
CN(C(=O)c1cc(C(F)(F)F)ccc1Cl)c1ccccc1 = condition met
O=C1NC(=O)c2cc(C(F)(F)F)ccc21 = condition not met
COCOc1ccc(C(F)(F)F)cc1NC(=O)Oc1ccccc1 = condition met
C[C@H](NS(=O)(=O)c1ccc([N+](=O)[O-])cc1)C(=O)NC(=O)Nc1cc(C(F)(F)F)ccc1O = condition not met

Does O=C(Nc1ccccc1)C1C(=O)Nc2ccccc21 (centres unmarked) have a reported Activation V1/2 (mV) of at least -2 mV?
condition not met

Does C[C@H](NS(=O)(=O)c1ccc(N)cc1)C(=O)NC(=O)Nc1cc(C(F)(F)F)ccc1O have a reported Activation V1/2 (mV) of at least -2 mV?
condition not met

Does COCOc1ccc(C(F)(F)F)cc1NC(N)=O have a reported Activation V1/2 (mV) of at least -2 mV?
condition met

Does C[C@H](NCc1ccc(C(F)(F)F)cc1)C(=O)NC(=O)Nc1cc(C(F)(F)F)ccc1O have a reported Activation V1/2 (mV) of at least -2 mV?
condition not met

Does COCOc1ccc(C(F)(F)F)cc1NC(=O)NC(=O)[C@H](C)N have a reported Activation V1/2 (mV) of at least -2 mV?
condition not met

---

Kindly state Activation V1/2 (mV) for each of the entries shown.
targetOfAssay: hERG1 (Homo sapiens, UniProt Q12809)
Construct: expressed in transfected cells; host or cells: HEK 293
Sequence (Q12809 whole entry): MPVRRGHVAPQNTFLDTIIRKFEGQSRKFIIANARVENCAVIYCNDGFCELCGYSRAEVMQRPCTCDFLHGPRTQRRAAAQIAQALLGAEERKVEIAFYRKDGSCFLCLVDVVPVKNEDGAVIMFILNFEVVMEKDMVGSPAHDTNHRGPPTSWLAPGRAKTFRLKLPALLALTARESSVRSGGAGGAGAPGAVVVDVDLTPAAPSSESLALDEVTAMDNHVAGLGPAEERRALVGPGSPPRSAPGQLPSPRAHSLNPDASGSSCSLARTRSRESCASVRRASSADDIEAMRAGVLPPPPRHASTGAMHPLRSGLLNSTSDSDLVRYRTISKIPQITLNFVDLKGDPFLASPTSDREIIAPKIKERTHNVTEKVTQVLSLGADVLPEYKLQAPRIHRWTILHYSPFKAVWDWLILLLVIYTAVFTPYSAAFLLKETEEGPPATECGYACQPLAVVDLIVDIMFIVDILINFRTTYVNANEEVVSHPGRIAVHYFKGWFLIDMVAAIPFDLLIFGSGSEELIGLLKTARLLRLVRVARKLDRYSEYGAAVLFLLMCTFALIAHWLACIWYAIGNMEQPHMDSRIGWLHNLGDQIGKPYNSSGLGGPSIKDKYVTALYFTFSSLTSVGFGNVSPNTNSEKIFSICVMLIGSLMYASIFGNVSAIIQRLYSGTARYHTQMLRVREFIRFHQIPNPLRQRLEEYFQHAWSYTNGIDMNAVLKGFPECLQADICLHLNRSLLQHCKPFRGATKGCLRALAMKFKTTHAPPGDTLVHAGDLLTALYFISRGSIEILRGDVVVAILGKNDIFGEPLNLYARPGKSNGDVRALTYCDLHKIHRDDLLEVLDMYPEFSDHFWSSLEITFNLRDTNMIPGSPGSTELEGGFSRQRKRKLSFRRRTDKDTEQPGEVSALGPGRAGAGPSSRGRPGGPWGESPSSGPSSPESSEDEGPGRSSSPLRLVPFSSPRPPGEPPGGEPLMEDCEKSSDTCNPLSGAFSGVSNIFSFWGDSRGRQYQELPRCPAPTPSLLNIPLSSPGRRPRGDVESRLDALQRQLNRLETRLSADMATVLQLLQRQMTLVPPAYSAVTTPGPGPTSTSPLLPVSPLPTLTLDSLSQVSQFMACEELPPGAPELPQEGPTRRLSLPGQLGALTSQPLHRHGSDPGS
testSummary: Whole cell patch-clamp of hERG1 currents in transfected HEK 293 cells
Assay type: cell-based
details: Conc. 2 µM; shift in voltage-dependence of activation
Answers are plain numbers, in mV.

Would you be so kind as to report Activation V1/2 (mV) for each listed record?
1. C[C@H](NCc1ccc(Br)cc1)C(=O)NC(=O)Nc1cc(C(F)(F)F)ccc1O [Compound 4]
2. C[C@H](NS(=O)(=O)c1ccc(N)cc1)C(=O)NC(=O)Nc1cc(C(F)(F)F)ccc1O [Compound 13]
3. C[C@H](NCc1ccc(F)cc1)C(=O)NC(=O)Nc1cc(C(F)(F)F)ccc1O [Compound 3]
4. C[C@H](NS(=O)(=O)c1ccc([N+](=O)[O-])cc1)C(=O)NC(=O)Nc1cc(C(F)(F)F)ccc1O [Compound 14]

1. −5
2. −2
3. −17.3
4. −3

---

targetOfAssay: hERG1 (Homo sapiens)
Construct: expressed in transfected cells; host or cells: HEK 293
testSummary: Whole cell patch-clamp of hERG1 currents in transfected HEK 293 cells
Type: cell-based
details: Conc. 50 µM; tail current relative to baseline
Kindly state Amplitude I/Icon for each of the entries shown.
One number for each entry.

C[C@H](NS(=O)(=O)c1ccc([N+](=O)[O-])cc1)C(=O)NC(=O)Nc1cc(C(F)(F)F)ccc1O [Compound 14] = 0.39

Would you be so kind as to report Amplitude I/Icon for each listed record?
1. C[C@H](NS(=O)(=O)c1ccc(N)cc1)C(=O)NC(=O)Nc1cc(C(F)(F)F)ccc1O [Compound 13]
2. CN(C(=O)c1cccc(C(F)(F)F)c1)c1ccccc1 [Compound 18]
3. COCOc1ccc(C(F)(F)F)cc1NC(=O)Oc1ccccc1 [Compound 22]

1
0.8
0.9
